All values here come from PubChem BioAssay (NCI).

System: SW-620 colon
Assay: NCI-60 one-dose screen, 48 h (100 = growth as untreated, 0 = no growth, -100 = all killed)
Conditions: 10 µM unless noted
About 83,000 compounds went through this panel and 20% of them were active in at least one assay; those are over-represented in the sample as a whole.
REPORTED PROPERTY: growth (%)
Form entry: value (%) — number only.

Below: 8 molecules and their reported growth.
C#CCOc1cccc(Nc2ncnc3ccc(NC(=O)C=C)cc23)c1    55.9
O=C(COc1ccc(-c2nc3cc(Cl)c(Cl)cc3[nH]2)cc1)N=Nc1c(O)[nH]c2ccc(Cl)cc12    56.1
CCC(=O)Oc1ccc(-c2ccccc2)cc1Br    99.1
COC(=O)CC[C@H](C)[C@H]1CC[C@H]2[C@@H]3CC[C@@H]4CC5(CC[C@]4(C)[C@H]3CC(=O)[C@]12C)Nc1ccccc1NC5=NC(C)(C)C (some centres undefined)    69.7
N#C/C(=C\c1c(-c2ccccc2)[nH]c2ccccc12)C(N)=O    56.9
N#Cc1c(-c2ccc(Cl)cc2)c(C#N)c2c(C#N)c(N)nn2c1N    94.7
O=C(CSc1nnc(-c2cnccn2)n1-c1ccccc1)c1ccc(Cl)cc1    106
Cn1ccnc1C(=O)/C=C/c1ccc(C(=O)Nc2ccc(Cl)cc2)cc1    -46.8

Consider the additional molecule presented here.
Task: GET /values?readout=growth&item= O=S(=O)(NCCNc1nccc(-c2c(-c3ccc(F)c(O)c3)nc3occn23)n1)c1ccc(Cl)cc1
Result: 112

---

System: SR leukemia
Experiment: NCI-60 one-dose screen, 48 h (100 = growth as untreated, 0 = no growth, -100 = all killed)
Conditions: 10 µM unless noted
This is part of a sample that, as a whole, favours compounds with a hit. Of some 83,000 tested, about 20% had one in any assay.
With a cut-off of 30%, any growth strictly below it is called fulfilled; any growth meeting it or above is called not fulfilled.

CSc1nc2ncc([N+](=O)[O-])c(=O)n2[nH]1    not fulfilled
Cc1c[n+](Cc2ccc3ccccc3c2)cn1Cc1ccc2ccccc2c1    fulfilled
COC1=CC(c2ccc[nH]2)=N/C1=C\c1[nH]c(C)c(CC(=O)OCc2ccccc2)c1CCC(=O)OCc1ccccc1    fulfilled
CCCCCOC(=O)c1c(C)[nH]c(/C=C2\N=C(c3ccc[nH]3)C=C2OC)c1C    fulfilled

Task: Given the entry Cc1[nH]c(C(=O)Nc2ccccc2OC2CCNCC2)c(Cl)c1Cl , would its reported growth be below 30%?
Result: fulfilled

Task: Given the entry CC/C(=C(/c1ccc(Cl)cc1)c1ccc(OCCN2CCCCC2)cc1)c1ccc(OC)cc1 , would its reported growth be below 30%?
Result: fulfilled

Task: Given the entry O=C(c1nn(-c2ccccc2)c2c1CC(NCc1ccc(F)cc1)CC2)N1CCCCC1 (stereo not drawn) , would its reported growth be below 30%?
Result: not fulfilled

Task: Given the entry CCOc1nc(-c2ccccc2)cc2c(O)c(C(=O)N/N=C/c3ccccc3)[nH]c(=O)c12 , would its reported growth be below 30%?
Result: not fulfilled

---

System: OVCAR-3 ovarian
Test: NCI-60 one-dose screen, 48 h (100 = growth as untreated, 0 = no growth, -100 = all killed)
Conditions: 10 µM unless noted
Compounds without any hit were thinned out: in the full panel of roughly 83,000, 20% have a hit. The source made the active and inactive calls. Rule for the calls: active = growth percent below 10; inactive = the rest.
Below: a set of entries, each annotated with reported growth.

Below: 5 molecules and their reported growth.
Cn1c(=O)c2nc(/C=C/c3ccccc3)c(=O)[nH]c2n(C)c1=S    116% (inactive)
N#CSCC1CC(O)(c2ccccc2)CC(c2ccc(F)cc2)O1 (centres undefined)    -79.3% (active)
COc1cc2c(cc1OC)C(C)N(S(N)(=O)=O)CC2 (centres undefined)    99.2% (inactive)
O=C(Nc1ccc(OS(=O)(=O)c2ccc(F)cc2)cc1)C1CCCCCC1    96.1% (inactive)
O=C(COc1ccc(-c2nc3cc(Cl)c(Cl)cc3[nH]2)cc1)N=Nc1c(O)[nH]c2ccc(Cl)cc12    75.1% (inactive)

Task: GET /values?readout=growth&item= CSc1nc2ccccc2cc1/C=[N+](\[O-])c1ccccc1
Result: 66.9% (inactive)

Task: GET /values?readout=growth&item= Cc1c(-c2ccc(O)cc2)n(Cc2ccc(OCCN3CCCCCC3)cc2)c2ccc(O)cc12
Result: 85.1% (inactive)

Task: GET /values?readout=growth&item= Nc1[nH]n2cc(-c3ccccc3)nc2c1N=Nc1ccc(S(N)(=O)=O)cc1
Result: 46.8% (inactive)

Task: GET /values?readout=growth&item= O=C1/C(=C/c2ccccc2O)CC/C1=C\c1ccccc1O
Result: 30.9% (inactive)

Task: GET /values?readout=growth&item= S=c1sc2c(Cl)nc(-c3cccnc3)nc2n1-c1ccccc1
Result: 52.2% (inactive)

Task: GET /values?readout=growth&item= CCOC(=O)c1cc(C(=O)c2cc(OC)c(OC)c(OC)c2)n2ncccc12
Result: -15.2% (active)

Task: GET /values?readout=growth&item= O=C1C(Cl)=C(NCCCCCCNC2=C(Cl)C(=O)c3ccccc3C2=O)C(=O)c2ccccc21
Result: 47.3% (inactive)
